The reader will find reported growth inhibition values listed item by item below.
experiment: NCI Yeast Anticancer Drug Screen. Data for the bub3 strain (AID 167); conditions: S. cerevisiae bub3 mutant strain, at 50.0 µM, stronger effect = higher value
The panel holds about 79,000 compounds, 15% with a hit somewhere; the sample as a whole holds those more often.
Quick note: give the figure in %, leave out the unit.

Some solved entries appear below for comparison.
Cc1ccc2c(c1)C(c1cccc3ccccc13)OC2=O (stereo unspecified) : 14.2
CCOC(=O)c1[nH]c(-c2ccc(OC)cc2)c(C(=O)OCC)c1-c1ccccc1 : 3.05
O=C1OC(=O)C2=C1CCCC2 : -18
O=C(NC(Cc1ccc(O)cc1)C(=O)O)SCc1ccccc1 (stereo unspecified) : 22.9
CC1(C)OCC(C2OC3OC(C)(C)OC3C2c2ccccc2)O1 (stereo unspecified) : -2.8
CC(C)=CCc1c(O)ccc(C(=O)C2C(c3c(O)cc(-c4cc5ccc(O)cc5o4)cc3O)C=C(C)CC2c2ccc(O)cc2O)c1O (stereo unspecified) : 88.2
CC(C)c1nc(N)nc(N)n1 : 1
Clc1ccc(SCSc2ccc(Cl)cc2)cc1 : 6.45

// Input: Nc1[nH]c(=S)[nH]c(=O)c1NS(=O)(=O)c1cccc([N+](=O)[O-])c1 . Output its growth inhibition only.
-11.4

// Input: CCC(=O)Nc1cc(Cl)ccc1Cl . Output its growth inhibition only.
-8.9

====

experiment: NCI Yeast Anticancer Drug Screen. Data for the mlh1 rad18 strain (AID 175); details: S. cerevisiae mlh1 rad18 strain growth inhibition; at 50.0 µM; stronger effect = higher value
This is part of a sample that, as a whole, favours compounds with a hit. Of some 79,000 tested, about 15% had one in any assay.
The reader will find reported growth inhibition values listed item by item below.
Quick note: give the figure in %, leave out the unit.

// Input: CC/C(C=O)=C\NC(=O)Nc1ccccc1 . Output its growth inhibition only.
1.1

// Input: c1ccc(-c2nnc(-c3ccccn3)c3c2C[C@@H]2C[C@@H]4Cc5c(-c6ccccn6)nnc(-c6ccccn6)c5[C@@H]4[C@H]32)nc1 . Output its growth inhibition only.
-17.4

// Input: C1=C(c2ccccc2)c2ccccc2CC1 . Output its growth inhibition only.
3

// Input: CC(=O)OC1CCCC2CCCC21 (stereo not drawn) . Output its growth inhibition only.
-3.75

// Input: Cc1ccc(C(=N)c2ccccc2Cc2ccccc2)cc1C . Output its growth inhibition only.
-27.9

// Input: CCc1cc(CSc2ccc(Cl)cc2)ccc1N . Output its growth inhibition only.
98.2

// Input: CC(CC(C)(C)C)C(=O)NC(N)=O (stereo not drawn) . Output its growth inhibition only.
7.6

// Input: C=C(Cl)C(Cl)(CBr)CCC(Br)C(C)(C)Cl (stereo not drawn) . Output its growth inhibition only.
-22.8

// Input: COC1=CC(=O)/C(=C(O)/C=C/c2ccccc2)C(=O)C1(C)C . Output its growth inhibition only.
29.4

// Input: COC(=O)CC1NC(=O)[C@]1(C)[C@H](C)O (stereo partly drawn) . Output its growth inhibition only.
-48.9

====

assay: NCI Yeast Anticancer Drug Screen. Data for the sgs1 mgt1 strain (AID 161);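 also: 0% = growth of cultures given vehicle only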; details: S. cerevisiae sgs1 mgt1 strain, at 50.0 µM, stronger effect = higher value
About 79,000 compounds went through this panel and 15% of them were active in at least one assay; those are over-represented in the sample as a whole.
measured-attribute: growth inhibition (%)
Quick note: give the figure in %, leave out the unit.

CCC[CH2][Ge]([CH2]CCC)([CH2]CCC)[n]1ccc2ccccc21 : 47
O=C(OCc1ccccc1)N1CCCCC1 : 5.45
CCCCCCCCCCCCCCCCOc1ccc(S(=O)(=O)NC(C)(C)C)cc1[N+](=O)[O-] : 7.85
S=C1SCCCN1c1ccccc1 : -4.9

// Input: O=c1[nH]cc(N=Cc2ccccc2O)c(=O)[nH]1.[Cl][Pt] . Output its growth inhibition only.
39

// Input: COC1OC2COC(c3ccccc3)OC2C(OC(=O)c2ccc([N+](=O)[O-])cc2)C1OS(=O)(=O)c1ccc(C)cc1 (stereo unspecified) . Output its growth inhibition only.
21.6

// Input: CC(C)CCC(C)(C)COC(=O)c1ccc([N+](=O)[O-])cc1 (tested in a mixture with another compound) . Output its growth inhibition only.
43.4

// Input: O=c1/c(=C/c2ccccc2F)sc2nc3ccccc3n12 . Output its growth inhibition only.
12.2

// Input: CCCCCO[Si](OCCCCC)(OCCCCC)OCCCCC . Output its growth inhibition only.
29.4

// Input: O=c1[nH]c(=S)[nH]c2[nH]ccc12 . Output its growth inhibition only.
-19.6

// Input: CCCCCCCCCCCCCCCCC1=C(C(=O)OC)NC(N)=NC1O (stereo unspecified) . Output its growth inhibition only.
-20.8
